# SUBJECT OF TEST: PIN1 (Homo sapiens)
# Construct: polyhistidine (N); made in house; host or cells: Escherichia coli BL21 (DE3)
# EXPERIMENT NOTES: [15N,1H]-HSQC titration series with increasing ligand concentration, PIN1
# Format: binding
# MEASUREMENT SETUP: fit of CSP build-up of residue A124; values with * could not be fitted to a maximum, Kd most likely higher; read-out: Kd A124
# Experimental: (B) Chemical shift perturbation titration studies of the compounds with ^15N-labeled PIN1 measured by [^15N,^1H]-HSQC experiments and shown for residues T154 and A124 in the presence of increasing ligand concentrations. […] For the control binding experiments using ligand-induced chemical shift perturbation analysis, standard [^15N, ^1H]-HSQC spectra were measured. […] The STD experiments were measured at 298 K with 16,384 (tmax (^1H) = 974 ms) complex points and 512 scans per increment. […]
Kd overview
READOUT: Kd (mM)

{"columns": ["MOLECULE", "READOUT", "UNITS", "MEASURED"],
 "data": [
  ["Cc1cccc(-c2nc(C)c(C(=O)O)[nH]2)c1 [Compound 13, reference compound]", "Kd", "mM", 4.5],
  ["c1ccc2c(c1)NCCO2", "Kd", "mM", 11.8],
  ["Cn1ncc2cc(N)ccc21", "Kd", "mM", 8.6],
  ["CN1CCNc2cccnc21", "Kd", "mM", 8.8]
]}

* * *

Reported polarization ratio values for a set of compounds
# SUBJECT OF TEST: PIN1 (Homo sapiens, UniProt Q13526)
# Construct: polyhistidine (N); made in house; host or cells: Escherichia coli BL21 (DE3)
# Sequence (Q13526 whole entry): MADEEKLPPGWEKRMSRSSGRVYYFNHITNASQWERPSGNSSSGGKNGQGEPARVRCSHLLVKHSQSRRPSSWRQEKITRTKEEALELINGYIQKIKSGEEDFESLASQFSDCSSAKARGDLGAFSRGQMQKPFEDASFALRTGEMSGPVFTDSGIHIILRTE
# EXPERIMENT NOTES: photo-CIDNP 1D 1H NMR fragment screening (polarization ratio) against PIN1
# Assay type: binding
# MEASUREMENT SETUP: 50 μM ligand, ±25 μM PIN1, 20 μM fluorescein; 0 = total binding, 1 = no interaction; hit <0.8
READOUT: polarization ratio

{"columns": ["COMPOUND", "READOUT", "MEASURED"],
 "data": [
  ["Cn1ncc2cc(N)ccc21 [Compound 3]", "polarization ratio", 0.75],
  ["Cc1cccc(-c2nc(C)c(C(=O)O)[nH]2)c1 [Compound 13, reference compound]", "polarization ratio", 0.38],
  ["CN1CCNc2cccnc21 [Compound 11]", "polarization ratio", 0.53],
  ["c1ccc2c(c1)NCCO2 [Compound 10]", "polarization ratio", 0.38]
]}

* * *

# SUBJECT OF TEST: PIN1 (Homo sapiens)
# Construct: polyhistidine (N); made in house; host or cells: Escherichia coli BL21 (DE3)
# EXPERIMENT NOTES: T1ρ relaxation NMR experiment, PIN1
# Assay type: binding
# MEASUREMENT SETUP: low concentration, same sample conditions: 20 μM ligand (compound 1: 5 μM), ±2 μM PIN1
Each entry below lists one item and its recorded T1ρ decay ratio value.
READOUT: T1ρ decay ratio

{"columns": ["MOLECULE", "MEASURED"],
 "data": [
  ["Cn1ncc2cc(N)ccc21", 1.0],
  ["Cc1cccc(-c2nc(C)c(C(=O)O)[nH]2)c1 [Compound 13, reference compound]", 0.76],
  ["c1ccc2c(c1)NCCO2", 1.0],
  ["CN1CCNc2cccnc21", 1.0]
]}
